System: SNB-19 CNS
TEST_DESCRIPTION: NCI-60 one-dose screen, 48 h
CONDITIONS_USED: 10 µM unless noted
About 83,000 compounds went through this panel and 20% of them were active in at least one assay; those are over-represented in the sample as a whole. Active and inactive are the calls of the source. How the source made its calls: active means growth percent below 10; inactive means the rest.
Mark one answer only. Choices: T for active, F for inactive

MOLECULE	GROUP
CN1CCN(c2ccc3nc(-c4ccc5nc(-c6ccc(C(F)(F)F)cc6)[nH]c5c4)[nH]c3c2)CC1	F
COc1nc2c(cc1S(=O)(=O)c1ccccc1)CCc1c-2cnn1-c1ccccc1	F
CCCCCCCCCCCC(=O)[O][Sn]([CH2]CCC)([CH2]CCC)[CH2]CCC	T
COC(=O)c1c2c(c(C)[n+]([O-])c1C)C(=O)C=C(NCc1ccc(F)c(Cl)c1)C2=O	T
COc1ccc(-c2nc3sccn3c2/C=C/C(=O)c2cc(OC)c(OC)c(OC)c2)cc1OC	F

[ask] Record request — test call for CCCCCn1c(=N)n(CC(O)COc2cccc(C)c2)c2ccccc21 (stereo unspecified)
[reply] F

Values compiled from PubChem BioAssay (NCI).
